Target: Glutamate receptor ionotropic, kainate 1 (Rattus norvegicus, UniProt P22756)
Sequence (P22756 whole entry): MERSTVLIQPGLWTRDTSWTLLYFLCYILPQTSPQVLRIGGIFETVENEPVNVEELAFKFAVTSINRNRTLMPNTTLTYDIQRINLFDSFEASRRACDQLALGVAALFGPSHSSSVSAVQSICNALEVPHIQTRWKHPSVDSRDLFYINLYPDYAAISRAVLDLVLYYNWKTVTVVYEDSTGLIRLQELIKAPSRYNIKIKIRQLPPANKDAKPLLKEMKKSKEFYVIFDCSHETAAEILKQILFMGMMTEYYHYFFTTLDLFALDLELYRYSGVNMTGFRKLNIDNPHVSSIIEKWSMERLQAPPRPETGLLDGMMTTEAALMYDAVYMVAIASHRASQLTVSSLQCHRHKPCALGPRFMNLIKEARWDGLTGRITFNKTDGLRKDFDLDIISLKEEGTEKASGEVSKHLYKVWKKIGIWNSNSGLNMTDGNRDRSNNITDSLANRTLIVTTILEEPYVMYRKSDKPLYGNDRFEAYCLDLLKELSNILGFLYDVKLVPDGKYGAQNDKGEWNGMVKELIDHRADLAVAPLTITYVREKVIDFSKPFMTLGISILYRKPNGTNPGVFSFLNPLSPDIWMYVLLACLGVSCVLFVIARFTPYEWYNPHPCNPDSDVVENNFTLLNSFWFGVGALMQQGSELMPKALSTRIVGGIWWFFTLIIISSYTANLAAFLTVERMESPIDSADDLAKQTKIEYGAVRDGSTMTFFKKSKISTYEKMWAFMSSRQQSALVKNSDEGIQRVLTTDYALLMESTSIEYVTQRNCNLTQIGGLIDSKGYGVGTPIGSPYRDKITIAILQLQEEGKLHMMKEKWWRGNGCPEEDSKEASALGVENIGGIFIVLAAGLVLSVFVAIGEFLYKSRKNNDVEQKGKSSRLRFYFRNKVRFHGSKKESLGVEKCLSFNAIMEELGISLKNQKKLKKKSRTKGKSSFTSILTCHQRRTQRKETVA
Assay: Displacement of [3H]-NF608 from rat recombinant GluK1 receptor expressed in baculovirus infected insect Sf9 cell membranes after 60 mins
Details: read-out: Ki
pKi: −log10 of the molar value.
RECORDED ENDPOINT: pKi

Examples with answers:
get_value(item= NC(Cc1cc(Cl)c(O)c(-c2cccc(C(=O)O)c2)c1)C(=O)O (racemic) , readout=pKi) returns 5.26

get_value(item= Nc1c(Cl)cc(CC(N)C(=O)O)cc1-c1cccc(C(=O)O)c1 (racemic) , readout=pKi) returns 5.31

get_value(item= NC(Cc1cc(Cl)cc(-c2cccc(C(=O)O)c2)c1)C(=O)O (racemic) , readout=pKi) returns 5.24

[1] NC(Cc1cc(-c2cccc(C(=O)O)c2)c(Cl)c([N+](=O)[O-])c1)C(=O)O (racemic)
[2] NC(Cc1ccc(Cl)c(-c2cccc(C(=O)O)c2)c1)C(=O)O (racemic)
Task item: Lab note: check whether 1 or 2 shows the higher recorded pKi. Output the label that corresponds to your choice.
Reply: 1
(1: 5.21, 2: 4.46)

====

Biological target: Glutamate receptor ionotropic, kainate 3 (Rattus norvegicus, UniProt P42264)
Sequence (P42264 whole entry): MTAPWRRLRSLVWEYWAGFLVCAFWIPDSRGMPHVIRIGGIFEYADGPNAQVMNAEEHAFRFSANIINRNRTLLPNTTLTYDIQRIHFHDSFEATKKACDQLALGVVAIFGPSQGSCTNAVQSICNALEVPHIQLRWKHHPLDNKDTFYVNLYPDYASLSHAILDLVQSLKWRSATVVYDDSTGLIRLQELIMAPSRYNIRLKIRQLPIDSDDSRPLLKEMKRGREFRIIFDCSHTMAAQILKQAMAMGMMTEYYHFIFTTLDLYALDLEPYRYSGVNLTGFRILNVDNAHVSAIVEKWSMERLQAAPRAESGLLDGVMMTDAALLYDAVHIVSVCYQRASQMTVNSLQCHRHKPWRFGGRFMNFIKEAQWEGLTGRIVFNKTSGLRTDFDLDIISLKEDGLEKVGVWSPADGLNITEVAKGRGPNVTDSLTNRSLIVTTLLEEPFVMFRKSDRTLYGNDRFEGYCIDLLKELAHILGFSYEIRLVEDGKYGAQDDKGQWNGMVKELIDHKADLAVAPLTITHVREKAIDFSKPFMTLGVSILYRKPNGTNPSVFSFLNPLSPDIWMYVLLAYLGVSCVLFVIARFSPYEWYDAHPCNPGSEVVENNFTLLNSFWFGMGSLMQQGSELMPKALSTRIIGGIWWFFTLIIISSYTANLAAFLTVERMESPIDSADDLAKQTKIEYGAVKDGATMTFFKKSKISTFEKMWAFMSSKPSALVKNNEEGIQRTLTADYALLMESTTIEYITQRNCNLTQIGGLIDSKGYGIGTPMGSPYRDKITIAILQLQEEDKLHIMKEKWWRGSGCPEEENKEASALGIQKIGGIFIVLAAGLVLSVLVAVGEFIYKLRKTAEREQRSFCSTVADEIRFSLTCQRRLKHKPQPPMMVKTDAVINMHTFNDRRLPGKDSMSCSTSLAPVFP
Assay: Displacement of [3H]-kainate from rat recombinant GluK3 receptor expressed in baculovirus infected insect Sf9 cell membranes after 60 mins
RECORDED ENDPOINT: Ki

get_value(item= NC(Cc1ccc([N+](=O)[O-])c(-c2cccc(C(=O)O)c2)c1)C(=O)O (racemic) , readout=Ki) returns 23 µM

---
get_value(item= NC(Cc1cc(Cl)c(O)c(-c2cccc(C(=O)O)c2)c1)C(=O)O (racemic) , readout=Ki) returns 11 µM

====

Target: Glutamate receptor ionotropic, kainate 3 (Rattus norvegicus, UniProt P42264)
Experiment: Displacement of [3H]-kainate from rat recombinant GluK3 receptor expressed in baculovirus infected insect Sf9 cell membranes after 60 mins
pKi: −log10 of the molar value.
# pKi values compiled below

Examples with answers:
get_value(item= Nc1c(-c2cccc(C(=O)O)c2)cc(CC(N)C(=O)O)cc1[N+](=O)[O-] (racemic) , readout=pKi) returns < 4.00

get_value(item= CC(C)(C)c1onc(OCP(=O)(O)O)c1C[C@H](N)C(=O)O , readout=pKi) returns < 3.00

Then this compound:
get_value(item= Nc1ccc(CC(N)C(=O)O)cc1-c1cccc(C(=O)O)c1 (racemic) , readout=pKi) returns < 4.00

====

Target: Glutamate receptor ionotropic, kainate 2 (Homo sapiens, UniProt Q13002)
Sequence (Q13002 whole entry): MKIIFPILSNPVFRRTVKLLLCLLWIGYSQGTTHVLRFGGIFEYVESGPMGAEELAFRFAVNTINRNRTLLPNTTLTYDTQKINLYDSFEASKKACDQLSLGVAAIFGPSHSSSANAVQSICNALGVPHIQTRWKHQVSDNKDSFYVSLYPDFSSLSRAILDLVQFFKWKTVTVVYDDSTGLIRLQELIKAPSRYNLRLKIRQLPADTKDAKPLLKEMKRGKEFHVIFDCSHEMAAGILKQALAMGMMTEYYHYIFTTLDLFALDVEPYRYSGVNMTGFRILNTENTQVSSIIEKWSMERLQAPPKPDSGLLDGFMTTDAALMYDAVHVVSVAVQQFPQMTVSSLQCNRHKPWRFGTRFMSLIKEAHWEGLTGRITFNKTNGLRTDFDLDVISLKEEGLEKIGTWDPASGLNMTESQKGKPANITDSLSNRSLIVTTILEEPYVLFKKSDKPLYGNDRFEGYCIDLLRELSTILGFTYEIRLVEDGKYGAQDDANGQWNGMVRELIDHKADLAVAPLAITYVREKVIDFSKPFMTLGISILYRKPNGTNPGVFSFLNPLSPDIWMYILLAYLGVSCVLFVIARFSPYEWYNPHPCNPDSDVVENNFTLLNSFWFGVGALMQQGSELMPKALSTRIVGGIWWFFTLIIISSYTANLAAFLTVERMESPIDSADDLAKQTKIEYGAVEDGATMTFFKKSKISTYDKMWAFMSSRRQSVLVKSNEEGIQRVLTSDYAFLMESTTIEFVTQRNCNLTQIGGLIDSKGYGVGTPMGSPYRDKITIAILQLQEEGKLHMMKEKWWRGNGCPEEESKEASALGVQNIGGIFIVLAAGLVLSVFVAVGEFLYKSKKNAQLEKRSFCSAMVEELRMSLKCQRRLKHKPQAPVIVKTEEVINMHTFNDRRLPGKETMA
Assay: Displacement of [3H]-kainate from human recombinant GluK2 receptor expressed in HEK293 cell membranes after 60 mins
RECORDED ENDPOINT: pKi
Reminder that pKi means the negative base-10 logarithm of the concentration expressed in mol/L.

Entry O=C(O)[C@@H]1C[C@H]2C[C@@H](CN3CC(F)(F)C[C@H]3C(=O)O)CC[C@H]2CN1 : pKi on Glutamate receptor ionotropic, kainate 2 (Homo sapiens, UniProt Q13002) = 7.30

====

Test: Displacement of [3H]-AMPA from AMPA receptor in rat brain membranes after 30 mins
Assay type: cell membranes, Membrane
RECORDED ENDPOINT: pKi

get_value(item= NC(Cc1ccc([N+](=O)[O-])c(-c2cccc(C(=O)O)c2)c1)C(=O)O (racemic) , readout=pKi) returns 4.19

get_value(item= NC(Cc1cc(-c2cccc(C(=O)O)c2)c(Cl)c([N+](=O)[O-])c1)C(=O)O (racemic) , readout=pKi) returns 4.21

get_value(item= NC(Cc1cc(Cl)cc(-c2cccc(C(=O)O)c2)c1)C(=O)O (racemic) , readout=pKi) returns 4.31

get_value(item= NC(Cc1cc(-c2cccc(C(=O)O)c2)cc([N+](=O)[O-])c1)C(=O)O (racemic) , readout=pKi) returns 4.43
